Known GI50 of a selection of compounds
System: T-Rex 293 cell line SC3 cells lacking increased expression of androgen receptor protein
Experiment: Cellular growth inhibition assay, T-Rex 293 SC3 cells without doxycycline (CellTiter-Glo, 72 hours)
Assay type: cell-based
Details: 72 h, T-Rex 293 cell line SC3 cells not exposed to doxycycline (lacking increased androgen receptor expression)
Description: The following types of cells were prepared for this experiment: (i) a T-Rex 293 cell line having increased expression of androgen receptor protein due to exposure to doxycycline and (ii) a T-Rex 293 cell line lacking increased expression of androgen receptor protein. Ability of the test compounds to inhibit proliferation of the foregoing cell types was evaluated according to the procedures set forth below. […] Data was normalized using zero luminescence for baseline. […]

Compound	Experimental Value
CCNC(=O)C[C@@H]1N=C(c2ccc(OCC3CN(c4ccc(C(=O)N[C@H]5CC[C@H](Oc6ccc(C#N)c(Cl)c6)CC5)nn4)C3)cc2)c2c(sc(C)c2C)-n2c(C)nnc21	0.5 to 1.5 µM
Cc1sc2c(c1C)C(c1ccc([C@H]3C[C@H](C4CC5(CCN(c6ccc(C(=O)N[C@H]7CC[C@H](Oc8ccc(C#N)c(Cl)c8)CC7)nn6)CC5)C4)C3)cc1)=N[C@@H](Cc1ncco1)c1nnc(C)n1-2	> 3 µM
Cc1sc2c(c1C)C(c1ccc(NCC3CCCCN3c3ncc(C(=O)N[C@H]4CC[C@H](Oc5ccc(C#N)c(Cl)c5)CC4)cn3)cc1)=NC(Cc1ncco1)c1nnc(C)n1-2 (some centres unmarked)	< 0.5 µM

Alright, here's another compound for you.
Lab book: GI50 of Cc1sc2c(c1C)C(c1ccc(CCC3CC4(CCCN(c5ccc(C(=O)N[C@H]6CC[C@H](Oc7ccc(C#N)c(Cl)c7)CC6)nn5)C4)C3)cc1)=NCc1nnc(C)n1-2 (some centres unmarked) noted as < 0.5 µM
